Would you kindly list pIC50 for each of these compounds?
biological target: E. coli GroEL/ES (Escherichia coli); assay: Inhibition of Escherichia coli GroEL expressed in Escherichia coli DH5alpha/Escherichia coli GroES expressed in Escherichia coli BL21 (DE3) assessed as reduction in GroEL/GroES-mediated denatured rhodanese refolding after 45 mins by spectrometric analysis
Sequence (P0A6F5 whole entry, looked up): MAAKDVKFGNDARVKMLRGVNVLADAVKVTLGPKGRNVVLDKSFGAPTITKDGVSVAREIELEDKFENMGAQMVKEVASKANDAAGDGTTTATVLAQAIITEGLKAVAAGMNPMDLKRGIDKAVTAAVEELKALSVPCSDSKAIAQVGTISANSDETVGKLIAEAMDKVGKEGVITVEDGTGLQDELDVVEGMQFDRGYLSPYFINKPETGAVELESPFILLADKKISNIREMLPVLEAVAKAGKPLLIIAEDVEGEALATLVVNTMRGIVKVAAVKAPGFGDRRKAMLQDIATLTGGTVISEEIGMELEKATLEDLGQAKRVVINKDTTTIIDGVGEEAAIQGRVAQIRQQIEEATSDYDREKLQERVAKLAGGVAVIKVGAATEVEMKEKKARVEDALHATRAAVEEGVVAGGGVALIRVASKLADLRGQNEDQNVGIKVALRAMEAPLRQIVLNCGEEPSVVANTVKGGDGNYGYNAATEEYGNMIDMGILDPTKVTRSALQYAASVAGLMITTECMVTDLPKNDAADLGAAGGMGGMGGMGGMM
pIC50: −log10 of the molar value.

Completed entries (count: 10):
compound	pIC50
O=C(Nc1ccc(Sc2nc3ccccc3s2)cc1)c1cccc(Br)c1O	4.85
COc1c(Br)cccc1C(=O)Nc1ccccc1	< 4.00
O=C(Nc1cccc(Cl)c1)c1cccc(Br)c1	< 4.00
O=C(Nc1ccc(Sc2nc3ccccc3s2)c(Cl)c1)c1cc(Br)ccc1O	4.96
COc1c(Br)cccc1C(=O)Nc1ccc(Sc2nc3ccccc3s2)cc1	< 4.00
CCCCCCCCCC(=O)N[C@@H](Cc1c[nH]c2ccccc12)C(=O)NC(CC(N)=O)C(=O)N[C@@H](CC(=O)O)C(=O)N[C@@H]1C(=O)NCC(=O)N[C@@H](CCCN)C(=O)N[C@@H](CC(=O)O)C(=O)N[C@H](C)C(=O)N[C@@H](CC(=O)O)C(=O)NCC(=O)N[C@H](CO)C(=O)N[C@@H]([C@H](C)CC(=O)O)C(=O)N[C@@H](CC(=O)c2ccccc2N)C(=O)O[C@@H]1C (single isomer, unassigned)	< 4.00
O=C(Nc1ccccc1)c1cc(Br)ccc1O	< 4.00
O=C(Nc1ccc(Sc2nc3ccccc3s2)cc1)c1ccccc1O	4.06
Cc1cc(C(C#N)c2ccc(Cl)cc2)c(Cl)cc1NC(=O)c1cc(I)cc(I)c1O (stereo not given)	5.82
O=C(Nc1ccc(Sc2nc3ccccc3s2)c(Cl)c1)c1ccccc1O	4.20

Count: 4. Required value per item: pIC50.
1. COc1ccc(Br)cc1C(=O)Nc1ccc(Sc2nc3ccccc3s2)c(Cl)c1
2. O=C(Nc1ccc(Oc2ccc(Cl)cc2)c(Cl)c1)c1cc(I)cc(I)c1O [RAFOXANIDE]
3. O=C(Nc1cccc(Cl)c1)c1ccccc1
4. COc1c(Br)cccc1C(=O)Nc1ccc(Sc2nc3ccccc3s2)c(Cl)c1

Result:
1. < 4.00
2. 5.66
3. < 4.00
4. < 4.00

Count: 3. Required value per item: pIC50.
1. O=C(Nc1ccc(Sc2nc3ccccc3s2)cc1)c1ccccc1
2. COc1c(Br)cc(Br)cc1C(=O)Nc1ccccc1
3. O=C(Nc1ccc(Sc2nc3ccccc3s2)c(Cl)c1)c1cccc(Br)c1O

Result:
1: < 4.00; 2: < 4.00; 3: 5.42

====

tested on: Staphylococcus aureus; test: Bactericidal activity against planktonic growth of Staphylococcus aureus Rosenbach ATCC 25923 preincubated for 24 hrs followed by compound wash out and measured after 24 hrs; format: functional, organism-based
Would you kindly list pEC50 for each of these compounds?
Numbers only, as −log10 of the molar value.

chem-smiles	pEC50
O=C(Nc1ccc(Sc2nc3ccccc3s2)c(Cl)c1)c1cc(Br)cc(Br)c1O	6.44
O=C(Nc1ccc(Sc2nc3ccccc3s2)cc1)c1cc(Br)cc(Br)c1O	6.36
O=C(Nc1ccc(Sc2nc3ccccc3s2)c(Cl)c1)c1cccc(Br)c1O	6.35
O=C(Nc1ccc(Sc2nc3ccccc3s2)cc1)c1ccccc1O	6.70
CN[C@H](CC(C)C)C(=O)N[C@H]1C(=O)N[C@@H](CC(N)=O)C(=O)N[C@H]2C(=O)N[C@H]3C(=O)N[C@H](C(=O)N[C@H](C(=O)O)c4cc(O)cc(O)c4-c4cc3ccc4O)[C@H](O)c3ccc(c(Cl)c3)Oc3cc2cc(c3O[C@@H]2O[C@H](CO)[C@@H](O)[C@H](O)[C@H]2O[C@H]2C[C@](C)(N)[C@H](O)[C@H](C)O2)Oc2ccc(cc2Cl)[C@H]1O	6.17

Request: Given the compound `O=C(Nc1cccc(Cl)c1)c1cc(Br)ccc1O` , what is its reported pEC50?
Result: 6.34

====

test system: Staphylococcus aureus; assay: Antibacterial activity against methicillin-resistant Staphylococcus aureus ATCC BAA-44 after 6 to 8 hrs by bacterial proliferation assay; format: functional, organism-based; settings: Staphylococcus aureus, ATCC BAA-44
Would you kindly list pEC50 for each of these molecules?
Give bare numbers, as −log10 of the molar value.

> print(dat)
                                   molecule  reported.metric  obs.value
1       O=C(Nc1cccc(Cl)c1)c1cc(Br)cc(Br)c1O            pEC50       5.96
2  Cc1cc(C(C#N)c2ccc(Cl)cc2)c(Cl)cc1NC(=O)c1cc(I)cc(I)c1O (stereo unspecified)            pEC50       6.33

Moving on to the next molecule.
Request: Given the molecule `O=C(Nc1ccccc1)c1cc(Br)cc(Br)c1O` , what is its reported pEC50?
Result: 5.70

====

system: Staphylococcus aureus; assay: Antibacterial activity against Staphylococcus aureus ATCC 25923 after 6 to 8 hrs by bacterial proliferation assay; type: functional, organism-based
Would you kindly list pEC50 for each of these compounds?
Answers are plain numbers, as −log10 of the molar value.

Count: 4. Required value per item: pEC50.
1. O=C(Nc1ccc(Sc2nc3ccccc3s2)c(Cl)c1)c1cc(Br)ccc1O
2. O=C(Nc1ccc(Sc2nc3ccccc3s2)c(Cl)c1)c1cccc(Br)c1O
3. O=C(Nc1cccc(Cl)c1)c1cccc(Br)c1
4. CC1(C)S[C@@H]2[C@H](NC(=O)[C@H](N)c3ccccc3)C(=O)N2[C@H]1C(=O)O

Result:
6.92
6.35
4.33
6.72

Count: 2. Required value per item: pEC50.
1. COc1c(Br)cc(Br)cc1C(=O)Nc1cccc(Cl)c1
2. O=C(Nc1ccc(Sc2nc3ccccc3s2)c(Cl)c1)c1cc(Br)cc(Br)c1O

Result:
[4.34, 6.44]

====

tested on: Staphylococcus aureus; test: Bactericidal activity against Staphylococcus aureus Rosenbach ATCC 25923 in biofilms preincubated for 24 hrs followed by compound wash out and measured after 24 hrs; type: functional, organism-based
reported-metric: EC50 (nM)
One number for each entry, in nM.

Completed entries (count: 4):
chem-smiles	target-or-system	obs-value
O=C(Nc1ccc(Sc2nc3ccccc3s2)cc1)c1ccccc1O	Staphylococcus aureus	2000
O=C(Nc1ccc(Sc2nc3ccccc3s2)c(Cl)c1)c1cc(Br)cc(Br)c1O	Staphylococcus aureus	2400
O=C(Nc1ccc(Sc2nc3ccccc3s2)c(Cl)c1)c1cccc(Br)c1O	Staphylococcus aureus	5600
O=C(Nc1ccc(Sc2nc3ccccc3s2)cc1)c1cc(Br)cc(Br)c1O	Staphylococcus aureus	2300

Moving on to the next compound.
Request: Checklist item: EC50 tested on Staphylococcus aureus, entry `O=C(Nc1cccc(Cl)c1)c1cc(Br)ccc1O` , value?
Result: 6900

====

assay: Cytotoxicity against human THLE3 cells assessed as reduction in cell viability after 48 hrs by Alamar Blue reporter assay; conditions: 48 h
reported-metric: CC50 (µM)
Give bare numbers, in µM.

Completed entries (count: 2):
> print(dat)
                                   molecule  value.unit  obs.value
1  O=C(Nc1ccc(Oc2ccc(Cl)cc2)c(Cl)c1)c1cc(I)cc(I)c1O [RAFOXANIDE]          µM         24
2  O=C(Nc1ccc(Sc2nc3ccccc3s2)cc1)c1cc(Br)ccc1O          µM         12

Moving on to the next molecule.
Request: Given the molecule `O=C(Nc1cccc(Cl)c1)c1cccc(Br)c1O` , what is its reported CC50?
Result: 16

====

Would you kindly list CC50 for each of these molecules?
experiment: Cytotoxicity against human THLE3 cells assessed as reduction in cell viability after 48 hrs by Alamar Blue reporter assay; settings: 48 h
One number for each entry, in µM.

Completed entries (count: 3):
molecule	reported-metric	value-unit	obs-value
O=C(Nc1ccc(Sc2nc3ccccc3s2)c(Cl)c1)c1cccc(Br)c1O	CC50	µM	19
O=C(Nc1cccc(Cl)c1)c1cccc(Br)c1	CC50	µM	50
O=C(Nc1cccc(Cl)c1)c1cc(Br)cc(Br)c1O	CC50	µM	9.2

Moving on to the next molecule.
Request: Given the molecule O=C(Nc1ccccc1)c1cc(Br)cc(Br)c1O [METABROMSALAN] , what is its reported CC50?
Result: 25

====

target: E. coli GroEL/ES (Escherichia coli); assay: Inhibition of Escherichia coli GroEL expressed in Escherichia coli DH5alpha/Escherichia coli GroES expressed in Escherichia coli BL21 (DE3) assessed as reduction in GroEL/GroES-mediated denatured MDH refolding after 20 to 40 mins by spectrometric analysis
Would you kindly list IC50 for each of these compounds?

Completed entries (count: 5):
compound	IC50
O=C(Nc1ccc(Sc2nc3ccccc3s2)cc1)c1ccccc1O	40 µM
COc1ccccc1C(=O)Nc1cccc(Cl)c1	> 100 µM
COc1ccccc1C(=O)Nc1ccccc1	> 100 µM
COc1ccc(Br)cc1C(=O)Nc1cccc(Cl)c1	> 100 µM
O=C(Nc1cccc(Cl)c1)c1cccc(Br)c1O	> 100 µM

Count: 4. Required value per item: IC50.
1. O=C(Nc1ccc(Sc2nc3ccccc3s2)c(Cl)c1)c1cccc(Br)c1O
2. O=C(Nc1ccc(Sc2nc3ccccc3s2)c(Cl)c1)c1ccccc1
3. COc1ccccc1C(=O)Nc1ccc(Sc2nc3ccccc3s2)cc1
4. O=C(Nc1ccccc1)c1cc(Br)ccc1O

Result:
["9.5 µM", "> 100 µM", "> 100 µM", "> 100 µM"]
